Data origin: ChEMBL document CHEMBL1268902

- assay system: hERG (KCNH2) (Homo sapiens, UniProt Q12809)
- Sequence (Q12809 whole entry): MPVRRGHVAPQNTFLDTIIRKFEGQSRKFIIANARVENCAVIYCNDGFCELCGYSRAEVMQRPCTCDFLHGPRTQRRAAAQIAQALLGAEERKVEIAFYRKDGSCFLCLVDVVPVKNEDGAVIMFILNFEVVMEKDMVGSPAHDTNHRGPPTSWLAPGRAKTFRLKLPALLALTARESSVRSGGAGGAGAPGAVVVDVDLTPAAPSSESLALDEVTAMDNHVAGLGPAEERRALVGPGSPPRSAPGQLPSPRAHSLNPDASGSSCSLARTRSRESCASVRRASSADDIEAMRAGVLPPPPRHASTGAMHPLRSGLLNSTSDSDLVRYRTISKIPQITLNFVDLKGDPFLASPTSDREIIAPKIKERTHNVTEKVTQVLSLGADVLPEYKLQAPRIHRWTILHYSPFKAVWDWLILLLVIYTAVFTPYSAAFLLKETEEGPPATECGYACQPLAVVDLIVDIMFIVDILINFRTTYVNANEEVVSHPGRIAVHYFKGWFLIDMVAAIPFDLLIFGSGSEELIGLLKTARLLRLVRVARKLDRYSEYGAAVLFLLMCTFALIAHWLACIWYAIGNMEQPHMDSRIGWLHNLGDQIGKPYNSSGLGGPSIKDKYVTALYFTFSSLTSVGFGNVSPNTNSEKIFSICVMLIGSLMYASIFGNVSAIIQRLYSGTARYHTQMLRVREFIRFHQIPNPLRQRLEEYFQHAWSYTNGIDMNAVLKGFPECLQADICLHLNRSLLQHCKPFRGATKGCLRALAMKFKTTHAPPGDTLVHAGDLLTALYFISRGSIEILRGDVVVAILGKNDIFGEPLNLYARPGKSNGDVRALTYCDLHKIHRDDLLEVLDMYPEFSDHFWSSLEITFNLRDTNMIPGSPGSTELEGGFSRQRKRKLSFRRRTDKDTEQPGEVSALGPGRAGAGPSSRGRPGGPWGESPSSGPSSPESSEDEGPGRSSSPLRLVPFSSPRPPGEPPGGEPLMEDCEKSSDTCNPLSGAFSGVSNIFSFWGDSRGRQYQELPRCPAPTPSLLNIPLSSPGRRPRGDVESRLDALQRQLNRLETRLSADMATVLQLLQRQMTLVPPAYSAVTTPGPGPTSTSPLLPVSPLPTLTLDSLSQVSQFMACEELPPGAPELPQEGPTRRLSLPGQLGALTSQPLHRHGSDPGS
- method notes: Inhibition of human ERG at 30 uM
Entries and their inhibition at 30 µM values follow.
assay endpoint: inhibition at 30 µM (%)

>  <smiles representation>
CC[C@H]1OC(=O)[C@H](C)[C@@H](O[C@H]2C[C@@](C)(OC)[C@@H](O)[C@H](C)O2)[C@H](C)[C@@H](O[C@@H]2O[C@H](C)C[C@H](N(C)C(C)C)[C@H]2O)[C@](C)(O)C[C@@H](C)[C@H](OCc2ccncc2)[C@H](C)[C@@H](O)[C@]1(C)O

>  <assay system>
hERG (KCNH2) (Homo sapiens, UniProt Q12809)

>  <assay endpoint>
inhibition at 30 µM

>  <unit of measurement>
%

>  <value measured>
68

$$$$
>  <smiles representation>
CC[C@H]1OC(=O)[C@H](C)[C@@H](O[C@H]2C[C@@](C)(OC)[C@@H](O)[C@H](C)O2)[C@H](C)[C@@H](O[C@@H]2O[C@H](C)C[C@H](N(C)C(C)C)[C@H]2O)[C@](C)(O)C[C@@H](C)[C@H](OCc2nccs2)[C@H](C)[C@@H](O)[C@]1(C)O

>  <assay system>
hERG (KCNH2) (Homo sapiens, UniProt Q12809)

>  <assay endpoint>
inhibition at 30 µM

>  <unit of measurement>
%

>  <value measured>
61

$$$$

* * *

- assay system: UniProt Q12809
- method notes: Inhibition of human ERG at 30 uM
Criterion: inhibition at 30 µM meeting or surpassing 10%. Met: class 1. Not met: class 0.

>  <smiles representation>
CC[C@H]1OC(=O)[C@H](C)[C@@H](O[C@H]2C[C@@](C)(OC)[C@@H](O)[C@H](C)O2)[C@H](C)[C@@H](O[C@@H]2O[C@H](C)C[C@H](N(C)C(C)C)[C@H]2O)[C@](C)(O)C[C@@H](C)[C@H](OCc2nc[nH]n2)[C@H](C)[C@@H](O)[C@]1(C)O

>  <assigned label>
class 0

$$$$
>  <smiles representation>
CC[C@H]1OC(=O)[C@H](C)[C@@H](O[C@H]2C[C@@](C)(OC)[C@@H](O)[C@H](C)O2)[C@H](C)[C@@H](O[C@@H]2O[C@H](C)C[C@H](N(C)C(C)C)[C@H]2O)[C@](C)(O)C[C@@H](C)[C@H](OCc2csc(C)n2)[C@H](C)[C@@H](O)[C@]1(C)O

>  <assigned label>
class 1

$$$$
>  <smiles representation>
CC[C@H]1OC(=O)[C@H](C)[C@@H](O[C@H]2C[C@@](C)(OC)[C@@H](O)[C@H](C)O2)[C@H](C)[C@@H](O[C@@H]2O[C@H](C)C[C@H](N(C)C(C)C)[C@H]2O)[C@](C)(O)C[C@@H](C)[C@H](OCc2cc(C)on2)[C@H](C)[C@@H](O)[C@]1(C)O

>  <assigned label>
class 1

$$$$
>  <smiles representation>
CC[C@H]1OC(=O)[C@H](C)[C@@H](O[C@H]2C[C@@](C)(OC)[C@@H](O)[C@H](C)O2)[C@H](C)[C@@H](O[C@@H]2O[C@H](C)C[C@H](N(C)C(C)C)[C@H]2O)[C@](C)(O)C[C@@H](C)[C@H](OCCN)[C@H](C)[C@@H](O)[C@]1(C)O

>  <assigned label>
class 1

$$$$
>  <smiles representation>
CC[C@H]1OC(=O)[C@H](C)[C@@H](O[C@H]2C[C@@](C)(OC)[C@@H](O)[C@H](C)O2)[C@H](C)[C@@H](O[C@@H]2O[C@H](C)C[C@H](N(C)C(C)C)[C@H]2O)[C@](C)(O)C[C@@H](C)[C@H](OCCNC=O)[C@H](C)[C@@H](O)[C@]1(C)O

>  <assigned label>
class 0

$$$$
>  <smiles representation>
CC[C@H]1OC(=O)[C@H](C)[C@@H](O[C@H]2C[C@@](C)(OC)[C@@H](O)[C@H](C)O2)[C@H](C)[C@@H](O[C@@H]2O[C@H](C)C[C@H](N(C)C(C)C)[C@H]2O)[C@](C)(O)C[C@@H](C)[C@H](OCc2c[nH]cn2)[C@H](C)[C@@H](O)[C@]1(C)O

>  <assigned label>
class 1

$$$$
>  <smiles representation>
CC[C@H]1OC(=O)[C@H](C)[C@@H](O[C@H]2C[C@@](C)(OC)[C@@H](O)[C@H](C)O2)[C@H](C)[C@@H](O[C@@H]2O[C@H](C)C[C@H](N(C)C(C)C)[C@H]2O)[C@](C)(O)C[C@@H](C)[C@H](OCCNS(C)(=O)=O)[C@H](C)[C@@H](O)[C@]1(C)O

>  <assigned label>
class 1

$$$$

* * *

Entries and their inhibition at 300 µM values follow.
- assay system: hERG (KCNH2) (Homo sapiens, UniProt Q12809)
- method notes: Inhibition of human ERG at 300 uM

>  <smiles representation>
CCNC(=S)NCCO[C@@H]1[C@H](C)[C@@H](O)[C@](C)(O)[C@@H](CC)OC(=O)[C@H](C)[C@@H](O[C@H]2C[C@@](C)(OC)[C@@H](O)[C@H](C)O2)[C@H](C)[C@@H](O[C@@H]2O[C@H](C)C[C@H](N(C)C(C)C)[C@H]2O)[C@](C)(O)C[C@H]1C

>  <inhibition at 300 µM [%]>
88

$$$$
>  <smiles representation>
CC[C@H]1OC(=O)[C@H](C)[C@@H](O[C@H]2C[C@@](C)(OC)[C@@H](O)[C@H](C)O2)[C@H](C)[C@@H](O[C@@H]2O[C@H](C)C[C@H](N(C)C(C)C)[C@H]2O)[C@](C)(O)C[C@@H](C)[C@H](OCc2cc(C)on2)[C@H](C)[C@@H](O)[C@]1(C)O

>  <inhibition at 300 µM [%]>
90

$$$$
>  <smiles representation>
CC[C@H]1OC(=O)[C@H](C)[C@@H](O[C@H]2C[C@@](C)(OC)[C@@H](O)[C@H](C)O2)[C@H](C)[C@@H](O[C@@H]2O[C@H](C)C[C@H](N(C)C(C)C)[C@H]2O)[C@](C)(O)C[C@@H](C)[C@H](OCCNC(=O)c2ccc3[nH]cnc3c2)[C@H](C)[C@@H](O)[C@]1(C)O

>  <inhibition at 300 µM [%]>
100

$$$$
>  <smiles representation>
CC[C@H]1OC(=O)[C@H](C)[C@@H](O[C@H]2C[C@@](C)(OC)C[C@H](C)O2)[C@H](C)[C@@H](O[C@@H]2O[C@H](C)C[C@H](N(C)C(C)C)[C@H]2O)[C@]2(C)CC(C)=C(O2)[C@H](C)C(=O)[C@]1(C)OC

>  <inhibition at 300 µM [%]>
100

$$$$

* * *

- assay system: hERG (KCNH2) (Homo sapiens)
- method notes: Inhibition of human ERG at 30 uM

>  <smiles representation>
CC[C@H]1OC(=O)[C@H](C)[C@@H](O[C@H]2C[C@@](C)(OC)[C@@H](O)[C@H](C)O2)[C@H](C)[C@@H](O[C@@H]2O[C@H](C)C[C@H](N(C)C(C)C)[C@H]2O)[C@](C)(O)C[C@@H](C)[C@H](OCCNC(=O)c2ccc3[nH]cnc3c2)[C@H](C)[C@@H](O)[C@]1(C)O

>  <assay system>
hERG (KCNH2) (Homo sapiens)

>  <inhibition at 30 µM>
71%

$$$$
>  <smiles representation>
CCNC(=O)NCCO[C@@H]1[C@H](C)[C@@H](O)[C@](C)(O)[C@@H](CC)OC(=O)[C@H](C)[C@@H](O[C@H]2C[C@@](C)(OC)[C@@H](O)[C@H](C)O2)[C@H](C)[C@@H](O[C@@H]2O[C@H](C)C[C@H](N(C)C(C)C)[C@H]2O)[C@](C)(O)C[C@H]1C

>  <assay system>
hERG (KCNH2) (Homo sapiens)

>  <inhibition at 30 µM>
20%

$$$$
>  <smiles representation>
CCOC(=O)NCCO[C@@H]1[C@H](C)[C@@H](O)[C@](C)(O)[C@@H](CC)OC(=O)[C@H](C)[C@@H](O[C@H]2C[C@@](C)(OC)[C@@H](O)[C@H](C)O2)[C@H](C)[C@@H](O[C@@H]2O[C@H](C)C[C@H](N(C)C(C)C)[C@H]2O)[C@](C)(O)C[C@H]1C

>  <assay system>
hERG (KCNH2) (Homo sapiens)

>  <inhibition at 30 µM>
67%

$$$$
>  <smiles representation>
CC[C@H]1OC(=O)[C@H](C)[C@@H](O[C@H]2C[C@@](C)(OC)C[C@H](C)O2)[C@H](C)[C@@H](O[C@@H]2O[C@H](C)C[C@H](N(C)C(C)C)[C@H]2O)[C@]2(C)CC(C)=C(O2)[C@H](C)C(=O)[C@]1(C)OC

>  <assay system>
hERG (KCNH2) (Homo sapiens)

>  <inhibition at 30 µM>
84%

$$$$
